# Assay overview: Plasma pharmacokinetics of barasertib and barasertib-hQPA (LC-MS/MS), 7-day continuous infusion in patients with AML
# Type: in vivo, human
# Run conditions: human, plasma, intravenous, 1200 mg, plasma, n=4; arithmetic mean (standard deviation); read-out: VZ, volume of distribution (apparent) during terminal (λZ) phase
Observed property: Vd
# do not omit the unit; it follows the number

Memo: CCN(CCO)CCCOc1ccc2c(Nc3cc(CC(=O)Nc4cccc(F)c4)[nH]n3)ncnc2c1 [Barasertib-hQPA] , reported Vd: 2800 L

###

# Assay overview: Plasma pharmacokinetics of barasertib and barasertib-hQPA (LC-MS/MS), 7-day continuous infusion in patients with AML
# Format: in vivo, human
# Run conditions: human, intravenous, 1200 mg; plasma, n=4; arithmetic mean (standard deviation); read-out: λZ, slowest disposition rate constant (converted)
Observed property: k el (s⁻¹)
# unit: s⁻¹ | format: bare number

Memo: CCN(CCO)CCCOc1ccc2c(Nc3cc(CC(=O)Nc4cccc(F)c4)[nH]n3)ncnc2c1 , reported k el: 5.56e-06

###

# Assay overview: Plasma pharmacokinetics of barasertib and barasertib-hQPA (LC-MS/MS), 7-day continuous infusion in patients with AML
# Format: in vivo, human
# Run conditions: human, plasma, iv, 1200 mg, plasma, n=4; barasertib 1,200 mg 7-day continuous i.v. infusion; geometric mean (coefficient of variation); read-out: AUC(0–192 h)
Observed property: AUC(0-t) (ng·h/mL)
# unit: ng·h/mL | format: bare number

Memo: CCN(CCO)CCCOc1ccc2c(Nc3cc(CC(=O)Nc4cccc(F)c4)[nH]n3)ncnc2c1 [Barasertib-hQPA] , reported AUC(0-t): 38200

###

# Assay overview: Plasma pharmacokinetics of barasertib and barasertib-hQPA (LC-MS/MS), 7-day continuous infusion in patients with AML
# Type: in vivo, human
# Run conditions: human, intravenous, 1200 mg; plasma, n=4; arithmetic mean (standard deviation); read-out: t½, terminal half-life (converted)
Observed property: half-life (h)
# unit: h | format: bare number

Memo: CCN(CCO)CCCOc1ccc2c(Nc3cc(CC(=O)Nc4cccc(F)c4)[nH]n3)ncnc2c1 [Barasertib-hQPA] , reported half-life: 66.3

###

# Assay overview: Plasma pharmacokinetics of barasertib and barasertib-hQPA (LC-MS/MS), 7-day continuous infusion in patients with AML
# Type: in vivo, human
# Run conditions: human, plasma, iv, 1200 mg, plasma, n=4; barasertib 1,200 mg 7-day continuous i.v. infusion; geometric mean (coefficient of variation); read-out: AUC(0–t)
Observed property: AUC(0-t)
# do not omit the unit; it follows the number

Memo: CCN(CCCOc1ccc2c(Nc3cc(CC(=O)Nc4cccc(F)c4)n[nH]3)ncnc2c1)CCOP(=O)(O)O , reported AUC(0-t): 13800 ng·h/mL

Attention now shifts to the item below.
Memo: CCN(CCO)CCCOc1ccc2c(Nc3cc(CC(=O)Nc4cccc(F)c4)[nH]n3)ncnc2c1 , reported AUC(0-t): 40100 ng·h/mL

The measured values listed here are drawn from paper PMC3428523.
